Experimental System: VLA-4 (α4β1 integrin) (Homo sapiens, UniProt P05556+P13612)
Sequence (P13612 34-1032): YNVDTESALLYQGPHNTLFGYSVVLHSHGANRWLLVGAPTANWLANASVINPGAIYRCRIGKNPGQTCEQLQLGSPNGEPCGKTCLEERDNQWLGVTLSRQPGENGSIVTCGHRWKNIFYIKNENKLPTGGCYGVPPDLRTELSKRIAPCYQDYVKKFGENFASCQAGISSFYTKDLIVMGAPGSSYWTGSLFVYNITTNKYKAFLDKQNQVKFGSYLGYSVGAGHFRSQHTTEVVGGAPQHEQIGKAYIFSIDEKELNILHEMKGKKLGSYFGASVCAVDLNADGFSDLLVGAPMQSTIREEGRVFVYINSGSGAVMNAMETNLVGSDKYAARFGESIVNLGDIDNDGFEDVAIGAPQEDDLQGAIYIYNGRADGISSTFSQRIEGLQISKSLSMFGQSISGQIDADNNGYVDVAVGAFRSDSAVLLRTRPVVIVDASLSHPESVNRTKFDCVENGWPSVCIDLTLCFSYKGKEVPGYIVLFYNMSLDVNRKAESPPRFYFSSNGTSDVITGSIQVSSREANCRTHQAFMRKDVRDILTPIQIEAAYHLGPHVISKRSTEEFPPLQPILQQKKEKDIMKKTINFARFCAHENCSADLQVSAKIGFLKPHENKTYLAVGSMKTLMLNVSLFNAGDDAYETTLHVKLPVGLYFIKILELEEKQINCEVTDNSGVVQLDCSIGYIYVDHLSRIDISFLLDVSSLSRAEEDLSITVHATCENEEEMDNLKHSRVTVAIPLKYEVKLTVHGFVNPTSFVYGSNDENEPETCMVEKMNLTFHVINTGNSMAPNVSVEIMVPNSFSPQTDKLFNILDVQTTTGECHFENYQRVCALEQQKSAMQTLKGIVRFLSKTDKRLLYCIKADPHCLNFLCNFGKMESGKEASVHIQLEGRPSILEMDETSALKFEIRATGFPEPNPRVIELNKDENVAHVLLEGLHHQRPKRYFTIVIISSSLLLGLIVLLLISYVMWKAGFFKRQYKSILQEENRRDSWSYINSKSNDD
Sequence (P05556 21-798): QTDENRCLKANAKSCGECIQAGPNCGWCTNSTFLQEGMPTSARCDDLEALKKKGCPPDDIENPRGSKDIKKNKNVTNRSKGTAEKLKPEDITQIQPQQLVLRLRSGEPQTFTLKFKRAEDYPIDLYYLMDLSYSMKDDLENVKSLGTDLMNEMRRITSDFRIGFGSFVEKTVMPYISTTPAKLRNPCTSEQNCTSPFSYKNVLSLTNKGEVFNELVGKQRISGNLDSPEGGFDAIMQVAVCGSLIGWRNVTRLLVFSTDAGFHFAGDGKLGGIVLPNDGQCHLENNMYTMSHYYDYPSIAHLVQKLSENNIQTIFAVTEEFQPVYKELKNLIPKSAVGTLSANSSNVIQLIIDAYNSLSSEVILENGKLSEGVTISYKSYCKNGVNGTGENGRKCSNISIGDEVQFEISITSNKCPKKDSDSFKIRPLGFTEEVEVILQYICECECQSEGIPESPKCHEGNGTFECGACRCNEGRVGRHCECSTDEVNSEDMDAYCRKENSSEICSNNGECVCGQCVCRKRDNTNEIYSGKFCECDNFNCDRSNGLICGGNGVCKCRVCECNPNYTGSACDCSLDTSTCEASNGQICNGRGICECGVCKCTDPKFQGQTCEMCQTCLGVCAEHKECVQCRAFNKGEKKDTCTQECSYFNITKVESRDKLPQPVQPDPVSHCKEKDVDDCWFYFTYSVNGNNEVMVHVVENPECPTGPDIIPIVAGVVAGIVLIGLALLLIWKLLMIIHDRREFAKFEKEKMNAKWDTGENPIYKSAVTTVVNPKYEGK
Assay Summary: biochemical
Type: binding
Details: table 13; competition for binding of Ramos cell-derived VLA-4 to immobilized VCAM-1; read-out: ELISA IC50
Reported Property: IC50 (nM)

Worked cases, IC50 given:
(Q) Give VLA-4 (α4β1 integrin) (Homo sapiens, UniProt P05556+P13612) IC50 for the following compound: CSc1ccccc1C(=O)N[C@@H](Cc1ccc(NC(=O)c2c(Cl)cccc2Cl)cc1)C(=O)O [Example 25]
(A) 0.42

(Q) Give VLA-4 (α4β1 integrin) (Homo sapiens, UniProt P05556+P13612) IC50 for the following compound: CCc1cccc(C)c1C(=O)N[C@@H](Cc1ccc(NC(=O)c2c(Cl)cccc2Cl)cc1)C(=O)O [Example 92]
(A) 0.42

(Q) Give VLA-4 (α4β1 integrin) (Homo sapiens, UniProt P05556+P13612) IC50 for the following compound: COc1ccc(Br)c(C(=O)N[C@@H](Cc2ccc(NC(=O)c3c(C)ccnc3C)cc2)C(=O)O)c1 [Example 108]
(A) 0.63

P: Cc1ccc(Cl)c(C(=O)N[C@@H](Cc2ccc(NC(=O)c3c(Cl)cccc3Cl)cc2)C(=O)O)c1 [Example 23]
Q: COc1ccc(C(=O)N[C@@H](Cc2ccc(NC(=O)c3c(Cl)cccc3Cl)cc2)C(=O)O)c(Cl)c1 [Example 19]
(Q) P or Q : whose IC50 is greater? Give the label under which the chosen entry appears.
(A) Q
(Q: 1.87 nM, P: 0.48 nM)
